Biological target: Histamine H2 receptor (Rattus norvegicus)
Sequence (P25102 whole entry): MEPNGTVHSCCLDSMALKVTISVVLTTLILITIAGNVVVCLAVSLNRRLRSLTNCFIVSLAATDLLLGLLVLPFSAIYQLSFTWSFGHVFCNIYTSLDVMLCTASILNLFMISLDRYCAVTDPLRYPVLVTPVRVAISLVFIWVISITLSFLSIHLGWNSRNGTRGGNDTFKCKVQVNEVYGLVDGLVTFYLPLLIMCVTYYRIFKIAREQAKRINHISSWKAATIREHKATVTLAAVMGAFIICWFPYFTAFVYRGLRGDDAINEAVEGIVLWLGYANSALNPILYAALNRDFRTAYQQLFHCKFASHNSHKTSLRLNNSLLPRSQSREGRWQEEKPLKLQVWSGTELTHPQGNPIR
Experiment: Antagonist activity at histamine H2 receptor in Charles River rat assessed as inhibition of histamine-mediated electrically stimulated uterine contraction
RECORDED_ENDPOINT: EC50 (µM)

Completed entries (count: 3):
> print(dat)
                          molecule  recorded.endpoint  unit.name  result
1  Cc1cc(C)c2ccc(=O)n(CCN(C)C)c2n1               EC50         µM      16
2     Cc1ccc2ccc(=O)n(CCN(C)C)c2n1               EC50         µM    9.43
3      Cc1cc(C)c2ccc(=O)n(CCN)c2n1               EC50         µM     156

P = CCN(CC)CCn1c(=O)ccc2c(C)cc(C)nc21
Q = Cc1cc(Cl)nc2c1ccc(=O)n2CCN(C)C
R = C/N=C(\S)NCCSCc1[nH]cnc1C [METIAMIDE]
Enquiry: Please list these in order of increasing EC50. Thank you! Response field: labels, in requested order.
Return: R, P, Q
(R: 1.15 µM, P: 4.1 µM, Q: 34.7 µM)
